Value source: paper PMC9911168

System: HepG2
Test: MTS cell viability assay, HepG2
Format: cell-based, human
Settings: Homo sapiens; liver cancer cell line HepG2, MTS, 48 h; read-out: IC50 (±SD) HepG2
Description: The effects of the extracts and isolated saponins on cell growth were evaluated by the MTS assay (3-(4,5-dimethylthiazol-2-yl)-5(3-carboxymethoxyphenyl)-2-(4-sulfopheny)-2H-tetrazolium; Promega, Madison, WI, United States) on human tumor cell lines ([Mosmann, 1983]; [Cory et al., 1991]; [Malich et al., 1997]). […]
# reported IC50; entries follow
Field format: number, assumed nM, no unit text.

// worked examples, IC50 included
INSERT INTO assay_data (molecule, readout_label, result_number) VALUES
  ('CC1CCC2(OC1)OC1CC3C4CC=C5CC(OC6OC(CO)C(OC7OC(C)C(O)C(O)C7O)C(O)C6OC6OC(C)C(O)C(O)C6O)CCC5(C)C4CCC3(C)C1C2C (stereo not shown) [saponin 3]', 'IC50', 3800),
  ('CC1CCC2(OC1)OC1CC3C4CC=C5CC(OC6OC(CO)C(OC7OC(CO)C(O)C7O)C(O)C6OC6OC(C)C(O)C(O)C6O)CCC5(C)C4CCC3(C)C1C2C (stereo not shown) [saponin 4]', 'IC50', 1590),
  ('CC1CCC2(OC1)OC1CC3C4CC=C5CC(OC6OC(CO)C(OC7OC(C)C(OC8OC(C)C(O)C(O)C8O)C(O)C7O)C(O)C6OC6OC(C)C(O)C(O)C6O)CCC5(C)C4CCC3(C)C1(O)C2C (stereo not shown) [saponin 5]', 'IC50', 1570);

For the next question, use this molecule.
Give the reported IC50 for this molecule. CC1CCC2(OC1)OC1CC3C4CC=C5CC(OC6OC(CO)C(OC7OC(CO)C(O)C7O)C(O)C6OC6OC(C)C(O)C(O)C6O)CCC5(C)C4CCC3(C)C1(O)C2C (stereo not shown) [saponin 2]
2140
